Where a name gives a salt, the structure may show the parent alone.
Reported values of melting point for individual entries

In [3]: df
Out[3]:
                                   compound  outcome_measure             result
0  Fc1ccc(-c2c[nH]c([C@@H](Cc3ccccc3)NC3CCCCC3)n2)cc1 (as salt: hydrochloride) [Example 327]    melting point      210 to 213 °C
1  CCCCCCOC(=O)NCCc1nc(-c2ccc(-c3ccccc3)cc2)c[nH]1 [Example 255]    melting point  116.5 to 116.8 °C
2  CN(Cc1ccccc1)[C@H](Cc1c[nH]c2ccccc12)c1nc(-c2ccccc2)c[nH]1 [Example 46]    melting point      110 to 112 °C
3  c1ccc(CN[C@H](CC2CCCCC2)c2nc(-c3ccc(-c4ccccc4)cc3)c[nH]2)cc1 [Example 169]    melting point      233 to 238 °C
4  CCCCCCC(N)c1nc(-c2ccccc2Cl)c[nH]1 (racemic) (as salt: hydrochloride) [Example 221]    melting point      138 to 140 °C
5  N[C@H](c1nc(-c2cccc(F)c2)c[nH]1)C1CCCCC1 (as salt: hydrochloride) [Example 311]    melting point      238 to 241 °C

q: Any idea what its melting point is? The compound is CCCCCCC(N)c1nc(-c2cccc(Br)c2)c[nH]1 (racemic) (as salt: hydrochloride) [Example 191]
a: 230 to 231 °C
